Experiment: NCI Yeast Anticancer Drug Screen. Data for the mlh1 rad18 strain (AID 175)
Conditions: S. cerevisiae mlh1 rad18 strain growth inhibition; at 5.0 µM (retest, dose inferred, filed as 0.5)
About 79,000 compounds went through this panel and 15% of them were active in at least one assay; those are over-represented in the sample as a whole. The source made the active and inactive calls. Rule as the data show it: active = growth inhibition above about 70%; inactive = the rest.
// classify into active, inactive

# example entries with known answers
| compound | qualitative.label |
| --- | --- |
| O=C(O)Cc1ccccc1CCc1ccccc1Cl | inactive |
| c1ccc(N=C2c3ccsc3C(=Nc3ccccc3)c3ccsc32)cc1 | inactive |
| COc1cc(C2c3cc4c(cc3[C@@H](Nc3ccc5c(c3)OCCO5)C3COC(=O)[C@H]23)OCO4)cc(OC)c1O (some centres not stated) | active |
| COC(CCC[N+](C)(C)C)CC[N+](C)(C)C (configuration not stated) | inactive |
| N#CC(C#N)=C1CCC(CC2CCCCC2)CC1 (configuration not stated) | inactive |

Can you look up the reported call for O=C(/C=C/c1ccccc1)C1(c2ccccc2)CC1 for me? inactive

Can you look up the reported call for COc1cc(OC)c(SSCCCCS(=O)O)c(OC)c1 for me? inactive

* * *

Experiment: NCI Yeast Anticancer Drug Screen. Data for the sgs1 mgt1 strain (AID 161);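 also: 0% = growth of cultures given vehicle only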
Conditions: S. cerevisiae sgs1 mgt1 strain, at 50.0 µM (retest, dose inferred, filed as 5.0), active compounds read high
Compounds without any hit were thinned out: in the full panel of roughly 79,000, 15% have a hit.
Each entry below carries its recorded growth inhibition.
Quick note: give the figure in %, leave out the unit.

Answered cases to consult:
| compound | recorded.value |
| --- | --- |
| COc1nc(Nc2ccc(/C=C/c3ccc(Nc4nc(OC)nc(N(CCO)CCO)n4)cc3S(=O)(=O)O)c(S(=O)(=O)O)c2)nc(N(CCO)CCO)n1 | 51 |
| CCOc1ccc(-c2nc3ccc(-c4nc5ccc(N6CCN(C)CC6)cc5[nH]4)cc3[nH]2)cc1 | 99 |
| O=C(Nc1cccc(Br)c1)Oc1ccc(Cl)c2cccnc12 | 99 |
| C/C=C(\C)C(=O)OC1C(C)C2(O)C(C=C(CO)CC3(O)C(=O)C(C)=CC32)C2C(C)(C)C12OC(=O)CCCCCCCCC (centres undefined) | 89 |
| CCC(c1ccc(O)c(C2CCCCC2)c1)C(CC)c1ccc(OC(=O)c2ccccc2)c(C2CCCCC2)c1 (centres undefined) | 11 |
| CCC(=O)OCN1C(=O)C=CC1=O | 100 |
| O=Nc1c(O)ccc2ccccc12.[Fe].[Na+] | 98 |
| O=C(O)C(c1ccc(Cl)cc1)c1ccc(Cl)cc1 | 99 |

Lab note: CCCCNC(C)(C)COC(=O)/C=C/c1ccc(OCCCC)cc1 gave growth inhibition of 86

Lab note: C/C(=C\c1ccccc1)c1ccncc1 gave growth inhibition of 51

Lab note: Cc1cc(N(CCC#N)CCC#N)ccc1/C(N=Nc1cccc([N+](=O)[O-])c1)=N/NC(=O)c1cc(Cl)ccc1O gave growth inhibition of 49

Lab note: O=[N+]([O-])c1cc(I)c(O)c(/C=N/NS(=O)(=O)c2ccc(Cl)cc2)c1 gave growth inhibition of 17

Lab note: N=C(N)c1ccc2oc3ccc(C(=N)N)cc3c(=O)c2c1 gave growth inhibition of 76

Lab note: C/C(=N\NC(=S)N1CCN(c2ccccn2)CC1)c1ncccn1 gave growth inhibition of -13

* * *

Test: NCI Yeast Anticancer Drug Screen. Data for the bub3 strain (AID 167)
Conditions: S. cerevisiae bub3 mutant strain, at 5.0 µM (retest, dose inferred, filed as 0.5), active compounds read high
Compounds without any hit were thinned out: in the full panel of roughly 79,000, 15% have a hit.
Each entry below carries its recorded growth inhibition.
Quick note: give the figure in %, leave out the unit.

| compound | growth inhibition / % |
| --- | --- |
| O=C1CCCCCC1Cc1cc(O)c(CC2CCCCCC2=O)cc1O (stereo not given) | -3 |

Lab note: Cn1c2ccccc2c2c(C#N)c(C#N)c([N+](=O)[O-])cc21 gave growth inhibition of 27

Lab note: CC(=O)Nc1nnc(C)s1 gave growth inhibition of 1

Lab note: CCCCCCCCCCCCCCCCCCn1[se]c2ccccc2c1=O gave growth inhibition of 0

Lab note: Oc1c(Br)c(Br)c(O)c(Br)c1Br gave growth inhibition of 8

Lab note: COc1cc2c(ccc3cc4cccc[n+]4cc32)c(Br)c1OC gave growth inhibition of -5

* * *

Each entry below carries its recorded growth inhibition.
Test: NCI Yeast Anticancer Drug Screen. Data for the mlh1 rad18 strain (AID 175)
Conditions: S. cerevisiae mlh1 rad18 strain growth inhibition; at 50.0 µM; active compounds read high
About 79,000 compounds went through this panel and 15% of them were active in at least one assay; those are over-represented in the sample as a whole.
Quick note: give the figure in %, leave out the unit.

Answered cases to consult:
| smiles.input | growth inhibition [%] |
| --- | --- |
| CCCN(CCC)C(=S)N/N=C(/C)c1ccccc1O | 90.8 |
| COc1ccc(/C=C(\C#N)c2ccccc2)cc1OC | 90.2 |

Lab note: Cn1cc(NC(=O)Nc2cc(C(=O)Nc3cc(C(=O)Nc4ccc5cc(S(=O)(=O)O)cc(S(=O)(=O)O)c5c4)n(C)c3)n(C)c2)cc1C(=O)Nc1cc(C(=O)Nc2ccc3cc(S(=O)(=O)O)cc(S(=O)(=O)O)c3c2)n(C)c1 gave growth inhibition of 90.8

* * *

Test: NCI Yeast Anticancer Drug Screen. Data for the rad50 strain (AID 155);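 also: 0% = growth of vehicle-only cultures of the same strain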
Conditions: S. cerevisiae rad50 strain growth inhibition; at 50.0 µM (retest, dose inferred, filed as 5.0)
About 79,000 compounds went through this panel and 15% of them were active in at least one assay; those are over-represented in the sample as a whole. Calls of active or inactive are those of the source. Rule as the data show it: active = growth inhibition above about 70%; inactive = the rest.
// classify into active, inactive

# example entries with known answers
| compound | qualitative.label |
| --- | --- |
| O=C(CNC(=O)c1ccccc1)NNc1ccccc1 | inactive |
| CC1=NN(C(=O)c2ccc(Cl)cc2)C(=O)C1N=Nc1ccc(S(=O)(=O)Nc2ncccn2)cc1 (stereo unspecified) | active |
| CCN(CC)c1ccc(N=Nc2ccc(-c3nc4cccn(C)c-4n3)cc2)cc1 | inactive |
| Oc1c(Br)c(Br)c(O)c(Br)c1Br | inactive |
| Cc1ccc(-c2c(C#N)c(-c3ccccc3)n(NS(=O)(=O)c3ccc(C)cc3)c(=O)c2C#N)cc1 | active |
| CCOC(=O)c1cnc(SCc2ccc(Cl)cc2Cl)nc1Cl | inactive |

Can you look up the reported call for O=C(Cc1ccc2c(c1)OCO2)c1ccc(O)cc1O for me? active

Can you look up the reported call for N#[N+]c1ccc2c(S(=O)(=O)Oc3ccc(C(=O)c4ccccc4)c(OS(=O)(=O)c4cccc5c([O-])c([N+]#N)ccc45)c3)cccc2c1[O-] for me? inactive

* * *

Assay: NCI Yeast Anticancer Drug Screen. Data for the bub3 strain (AID 167)
Settings: S. cerevisiae bub3 mutant strain, at 50.0 µM, active compounds read high
The panel holds about 79,000 compounds, 15% with a hit somewhere; the sample as a whole holds those more often.
property.measured: growth inhibition (%)
Quick note: give the figure in %, leave out the unit.

Answered cases to consult:
| smiles.input | uom | growth inhibition |
| --- | --- | --- |
| CCS(=O)(=O)/C=C(\C#Cc1ccccc1)c1ccccc1 | % | 87.5 |
| CCN(CC)CCCNc1nccc2c(C)c3[nH]c4ccncc4c3cc12 | % | -6.45 |
| Cc1[nH]c2ccccc2c1C(c1ccccc1)c1c(C)[nH]c2ccccc12 | % | 83.5 |

Please look at the following compound next.
Lab note: NNC(=O)NN=C(c1ccccc1)c1ccccc1 gave growth inhibition of 3.95

* * *

Assay: NCI Yeast Anticancer Drug Screen. Data for the sgs1 mgt1 strain (AID 161);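 also: 0% = growth of cultures given vehicle only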
Settings: S. cerevisiae sgs1 mgt1 strain, at 50.0 µM (retest, dose inferred, filed as 5.0), active compounds read high
Compounds without any hit were thinned out: in the full panel of roughly 79,000, 15% have a hit.
Each entry below carries its recorded growth inhibition.
Quick note: give the figure in %, leave out the unit.

| compound | property.measured | recorded.value |
| --- | --- | --- |
| O=C1OCc2cccc3cccc1c23 | growth inhibition | 29 |
| CNC(Cc1ccccc1)c1ccc(OC)c2ccccc12 (stereo not drawn) | growth inhibition | -10 |
| CCCCC(CCc1ccccc1)(C(=O)O)c1ccccc1 (stereo not drawn) | growth inhibition | 99 |
| COc1ccc(C2CC(CO)ON2c2ccccc2)cc1 (stereo not drawn) | growth inhibition | -15 |
| COc1cc2c(ccc3cc4cccc[n+]4cc32)c(Br)c1OC | growth inhibition | 39 |
| CC(C)(C)CC(C)(C)c1ccc(OCCSC(=N)N)cc1 | growth inhibition | 99 |
| Nc1nc2c(ccc3ccccc32)s1 | growth inhibition | 54 |
| O=C(Nc1ccccc1-c1nn(C(=S)Nc2ccccc2)c(=S)n(C(=S)Nc2ccccc2)c1=O)C(F)(F)F | growth inhibition | 77 |
| CC1=C(C(=O)Nc2cc(O)ccc2O)C(c2cccc([N+](=O)[O-])c2)C(C(=O)Nc2cc(O)ccc2O)=C(C)N1 | growth inhibition | 15 |
| CCN(CC)C(=S)N/N=C/c1cc([N+](=O)[O-])ccc1O | growth inhibition | 87 |

Lab note: O=c1c(NO)c([N+](=O)[O-])cnn1-c1ccccc1 gave growth inhibition of -2

Lab note: Nc1nc(N)c2nc(CNc3ccc(C(=O)NC(CCC(=O)O)C(=O)O)cc3)cnc2n1 (stereo not drawn) gave growth inhibition of -19

Lab note: Cc1cc(SC#N)cc(C)c1O gave growth inhibition of 45
